target: purified cynomolgus CD45 ectodomain (cynomolgus monkey); experiment: BLI (Octet Red96), IgG on anti-human Fc sensor, 50 nM CD45 ectodomain, 1:1 fit
Sequence (chain, as listed by the source limits assumed, form in doubt): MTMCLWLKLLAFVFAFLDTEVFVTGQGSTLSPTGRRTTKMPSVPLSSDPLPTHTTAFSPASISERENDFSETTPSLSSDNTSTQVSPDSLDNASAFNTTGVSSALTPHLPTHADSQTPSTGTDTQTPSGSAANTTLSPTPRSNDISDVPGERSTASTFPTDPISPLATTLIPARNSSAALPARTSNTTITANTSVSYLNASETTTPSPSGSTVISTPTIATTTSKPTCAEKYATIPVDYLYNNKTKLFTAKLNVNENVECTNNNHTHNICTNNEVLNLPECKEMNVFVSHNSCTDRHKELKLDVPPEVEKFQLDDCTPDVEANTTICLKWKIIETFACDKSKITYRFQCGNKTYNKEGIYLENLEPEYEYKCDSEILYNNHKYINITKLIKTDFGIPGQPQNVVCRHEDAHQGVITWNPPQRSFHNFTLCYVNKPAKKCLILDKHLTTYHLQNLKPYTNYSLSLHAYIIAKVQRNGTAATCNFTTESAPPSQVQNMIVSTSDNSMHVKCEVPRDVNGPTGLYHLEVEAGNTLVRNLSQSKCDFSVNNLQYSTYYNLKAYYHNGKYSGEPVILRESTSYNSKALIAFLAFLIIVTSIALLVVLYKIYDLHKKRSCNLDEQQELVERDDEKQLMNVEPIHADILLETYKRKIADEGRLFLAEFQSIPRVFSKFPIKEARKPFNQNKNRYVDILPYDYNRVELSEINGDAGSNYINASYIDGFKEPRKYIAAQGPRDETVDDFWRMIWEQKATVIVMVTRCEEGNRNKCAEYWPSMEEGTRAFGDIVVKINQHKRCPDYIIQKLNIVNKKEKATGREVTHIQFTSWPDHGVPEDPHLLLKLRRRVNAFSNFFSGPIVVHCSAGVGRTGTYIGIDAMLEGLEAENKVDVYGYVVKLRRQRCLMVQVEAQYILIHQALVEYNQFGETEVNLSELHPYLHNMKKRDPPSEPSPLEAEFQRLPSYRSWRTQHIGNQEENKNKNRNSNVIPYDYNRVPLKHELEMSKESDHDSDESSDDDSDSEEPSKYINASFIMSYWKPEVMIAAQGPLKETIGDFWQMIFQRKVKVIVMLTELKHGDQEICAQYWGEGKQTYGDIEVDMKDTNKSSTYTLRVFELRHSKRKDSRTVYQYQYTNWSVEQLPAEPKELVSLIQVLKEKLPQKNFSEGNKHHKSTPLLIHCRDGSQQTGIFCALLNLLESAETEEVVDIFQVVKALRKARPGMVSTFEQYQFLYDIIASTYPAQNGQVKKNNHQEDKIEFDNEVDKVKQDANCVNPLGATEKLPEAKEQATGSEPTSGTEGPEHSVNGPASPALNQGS
pKd: −log10 of the molar value.
# pKd values compiled below

{"binder": "Antibody 7 (Ab7) (antibody, V domains shown) VH: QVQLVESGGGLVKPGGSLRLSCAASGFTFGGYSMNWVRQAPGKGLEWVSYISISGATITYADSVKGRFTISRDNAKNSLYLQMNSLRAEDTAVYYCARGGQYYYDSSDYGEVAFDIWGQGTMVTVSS VL: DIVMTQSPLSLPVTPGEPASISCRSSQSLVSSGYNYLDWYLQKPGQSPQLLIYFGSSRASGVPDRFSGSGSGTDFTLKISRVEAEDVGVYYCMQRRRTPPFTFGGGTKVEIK", "pKd": 8.37}
{"binder": "Antibody 5 (Ab5) (antibody, V domains shown) VH: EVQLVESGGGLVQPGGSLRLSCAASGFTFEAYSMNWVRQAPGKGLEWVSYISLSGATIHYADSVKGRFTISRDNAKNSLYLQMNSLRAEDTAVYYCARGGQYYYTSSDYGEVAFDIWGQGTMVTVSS VL: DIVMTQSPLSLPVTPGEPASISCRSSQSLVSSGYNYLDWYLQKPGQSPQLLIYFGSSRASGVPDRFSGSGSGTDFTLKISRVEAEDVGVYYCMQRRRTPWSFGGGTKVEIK", "pKd": 8.85}
{"binder": "Antibody 6 (Ab6) (antibody, V domains shown) VH: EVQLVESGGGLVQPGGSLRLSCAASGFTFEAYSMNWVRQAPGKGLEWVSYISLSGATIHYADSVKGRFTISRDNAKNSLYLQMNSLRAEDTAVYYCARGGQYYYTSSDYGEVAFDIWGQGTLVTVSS VL: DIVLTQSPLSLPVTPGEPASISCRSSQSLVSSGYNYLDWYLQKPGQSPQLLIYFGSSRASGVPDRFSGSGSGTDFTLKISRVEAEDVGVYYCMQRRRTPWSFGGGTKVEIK", "pKd": 8.89}
{"binder": "Antibody 4 (Ab4) (antibody, V domains shown) VH: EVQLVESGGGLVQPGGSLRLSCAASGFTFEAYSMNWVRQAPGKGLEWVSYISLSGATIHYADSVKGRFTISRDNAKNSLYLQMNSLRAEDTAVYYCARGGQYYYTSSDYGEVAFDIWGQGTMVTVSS VL: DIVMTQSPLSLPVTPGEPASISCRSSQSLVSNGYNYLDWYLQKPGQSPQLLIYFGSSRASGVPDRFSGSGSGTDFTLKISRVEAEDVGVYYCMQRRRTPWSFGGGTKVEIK", "pKd": 9.14}
{"binder": "Antibody 3 (Ab3) (antibody, V domains shown) VH: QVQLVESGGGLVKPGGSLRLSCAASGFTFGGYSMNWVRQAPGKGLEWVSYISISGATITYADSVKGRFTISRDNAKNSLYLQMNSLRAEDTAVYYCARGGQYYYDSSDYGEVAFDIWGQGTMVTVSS VL: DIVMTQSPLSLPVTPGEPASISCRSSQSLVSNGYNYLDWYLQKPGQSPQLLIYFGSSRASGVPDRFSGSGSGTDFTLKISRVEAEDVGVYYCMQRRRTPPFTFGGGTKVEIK", "pKd": 8.79}
{"binder": "Antibody 2 (Ab2) (antibody, V domains shown) VH: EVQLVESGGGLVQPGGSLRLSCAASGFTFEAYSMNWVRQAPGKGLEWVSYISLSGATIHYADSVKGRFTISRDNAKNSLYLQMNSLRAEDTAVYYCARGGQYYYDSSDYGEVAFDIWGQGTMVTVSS VL: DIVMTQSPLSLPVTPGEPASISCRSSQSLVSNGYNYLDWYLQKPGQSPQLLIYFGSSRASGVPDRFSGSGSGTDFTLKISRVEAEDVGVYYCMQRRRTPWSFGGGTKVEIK", "pKd": 8.97}
